# Experiment description: HUVEC growth inhibition – cell-based, human, primary screen (AID 575);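 also: 100% = median of untreated cell wells with 0.1% DMSO on each plate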
# Recorded conditions: HUVEC proliferation, CellTiter-Glo luminescence, 72 h; at 10 µM
Active and inactive are the calls of the source.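 The calls were made as follows: active = viability at or below 30% in both replicate assays; inconclusive = viability at or below 30% in just one of the two assays; inactive = the rest.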
Parameter call: string, one of true for active, false for inactive

Use these answered entries as a reference point.
Compound	Qualitative label
Cn1nc(C(=O)N2CCOCC2)c2ccccc2c1=O	false
Cc1ccc(C)c(N2CCN(S(=O)(=O)c3ccc4c(c3)OCCO4)CC2)c1	false
COc1cccc(N2CCN(C(=O)C3C4C=CC5(CN(Cc6ccccc6Cl)C(=O)C35)O4)CC2)c1 (centres undefined)	false

Data request: Assay outcome for CC(=O)c1c(C)[nH]c(C(=O)N2CCN(C(=O)c3ccco3)CC2)c1C : what was it?
Data returned: false

Data request: Subsequent entry: O=c1cnnc(NCc2ccccc2)[nH]1
Data returned: false

Data request: Next compound up: CCCC(C)c1nnc(NC(=O)C2CCCO2)s1 (centres undefined)
Data returned: false

Data request: Same for CCc1nnc(NC(=O)c2cccc(C(=O)Nc3nnc(CC)s3)n2)s1
Data returned: true

Data request: Queued: Cc1ccc(CNC(=O)COC(=O)c2c(C)noc2C)cc1
Data returned: false

Data request: Request: CCN(CC)S(=O)(=O)c1ccc(Cl)c(C(=O)OC)c1
Data returned: false

Data request: Same question, Cn1ccnc1SCCC#N this time
Data returned: false

---

# Experiment description: HUVEC growth inhibition – cell-based, human, primary screen (AID 575);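 also: 100% = median of untreated cell wells with 0.1% DMSO on each plate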
# Recorded conditions: HUVEC proliferation, CellTiter-Glo luminescence, 72 h; at 10 µM; stronger effect = lower value
Readout label: viability (%)
Note: unit % is implicit; provide only the numeric part.

The following compounds have reported results that may help.
Compound	viability (%)
COc1ccc(-c2nnc(-c3cccs3)o2)cc1OC	92.7
COc1ccc(CCNc2nc(N3CCOCC3)nc(N3CCOCC3)n2)cc1OC	108
OCCn1c(-c2ccc3c(c2)OCO3)csc1=Nc1ccccc1	51.4

Data request: Given CN(Cc1cccs1)CC(O)COCc1ccco1 (stereo unspecified) , state its recorded viability.
Data returned: 109

Data request: For CC1(C)CC(=O)C(CC2=C(O)CC(C)(C)CC2=O)=C(O)C1 then?
Data returned: 94.4

Data request: How about this compound: Cc1ccsc1C1C2=C(CCCC2=O)Nc2ncnn21 (stereo unspecified)
Data returned: 98

Data request: Query CC(=O)NCCn1ccc2ccccc21 next
Data returned: 96.4

Data request: Similarly, COc1cc(NC(=O)c2cc(OC)c(OC)c(OC)c2)c(OC)cc1NC(=O)CN1CCCCC1 ?
Data returned: 67.9

Data request: Thanks! And N=c1c(C(=O)NCc2ccc(F)cc2)cc2c(=O)n3ccccc3nc2n1CCCN1CCOCC1 ?
Data returned: 82.8

Data request: Can you handle O=C(CSc1ncnc2c1cnn2-c1ccccc1)Nc1ccccc1 next?
Data returned: 63.1

Data request: Would you mind doing OC(CN1CCN(c2ccccn2)CC1)Cn1c2ccccc2c2ccccc21 (stereo unspecified) as well?
Data returned: 67.2

---

# Experiment description: 384-well plate pilot, post-Golgi transport modulator project, inhibition of yeast transport mutant growth (AID 636)
# Recorded conditions: absorbance 615 nm, about 18 h, stronger effect = higher value
Readout label: inhibition (%)
The reply should contain only the number, in %.

Solved entries:
Molecule	inhibition, %
COCCN(CC(=O)NC1CCCCC1)C(=O)CSc1nc2ccccc2o1	-0.39
CN(c1ccccc1)S(=O)(=O)c1ccc(C(=O)OCC(=O)N2CCOCC2)cc1	-5.41
COc1cc(-c2nc(-c3cccc(C(F)(F)F)c3)no2)cc(OC)c1OC	-1.87
N#CCCCCn1c(-c2cncs2)nc2ccccc21	-5
CCC(=O)N1C(=O)CCN(C(C)=O)c2ccccc21	-4.67

Data request: What inhibition value was documented for this molecule, COc1ccc(NC(=O)CC2Oc3ccccc3NC2=O)cc1 (stereo unspecified) ?
Data returned: 0.27

Data request: And for COc1ccc(OC)c(-c2nnc(SCC(=O)NC3CCCCC3)o2)c1 ?
Data returned: 0

---

# maps each entry to its Her2 level
# Study system: Receptor tyrosine-protein kinase erbB-2 (Homo sapiens)
# Experiment description: reducers of endogenous Her2 protein level, primary screen, SKBR3 breast tumor cells, AlphaScreen, ATP viability (AID 461);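 as to Her2 level: lower value means less Her2 protein in the cells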;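 as to viability: percent of carrier control wells set as 100% viability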
# Recorded conditions: 18-24 h, at 10 µM, stronger effect = lower value
Form entry: value (%) — number only.

Example compounds with recorded Her2 level:
Compound	Study system	Her2 level [%]
COc1ccccc1Nc1nc(N)nc(CN2CCN(c3ccccc3F)CC2)n1	Receptor tyrosine-protein kinase erbB-2 (Homo sapiens)	120
CCN(CC)CCOc1cccc(C(C)C)c1	Receptor tyrosine-protein kinase erbB-2 (Homo sapiens)	95.5

Data request: Recorded Her2 level for CC1=C(C(=O)OCc2ccccc2)C(c2ccc(C)o2)C2=C(CCCC2=O)N1 (stereo unspecified) , please?
Data returned: 88

Data request: Also, COc1cc(-c2nnc(SCC(=O)c3ccc(C)cc3)o2)cc(OC)c1OC please.
Data returned: 97.5

Data request: What about this compound? Cc1ccc(C)c(S(=O)(=O)NCc2ccc(C(=O)N3CCN(C)CC3)cc2)c1
Data returned: 85.5

---

Parameter: viability. Scope: all listed entries.
# Experiment description: growth inhibitors of H69AR lung tumor, primary screen, human, duplicate replicates (AID 580);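 also: 100% = mean luminescence of untreated wells and 0% = no signal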
# Recorded conditions: H69AR lung tumor cells viability, ATP luminescence, 72 h; at 10 µM; stronger effect = lower value
I only need the number, in %, no unit after it.

Compound	viability / %
CCOC(=O)c1c(NC(=O)c2nn(CC)cc2Br)c(C#N)cn1-c1ccccc1	74.8
Cc1cc(OC(=O)N2CCOCC2)cc(C)c1Cl	105

Data request: Quick one: viability for C=CCN(C(=O)CNS(=O)(=O)c1ccccc1)C(C(=O)NCCOC)c1ccncc1 (stereo unspecified) ?
Data returned: 102

Data request: Request: O=C(NCc1ccco1)C1CC(=O)N(c2ccc(F)cc2)C1 (stereo unspecified)
Data returned: 108

Data request: Try this compound too: COc1cc2c(C)nc(C)c(C#N)c2cc1OC
Data returned: 86.6

Data request: Now this one: CNC(=O)c1ccc(N(Cc2ccccc2C)S(C)(=O)=O)cc1
Data returned: 93.6

Data request: Query O=C(NCc1cccnc1)c1ccc2c(c1)OCO2 next
Data returned: 89.7

Data request: Continue with CC(C)(C)OC(=O)N1CCC(C(=O)N[C@H](Cc2ccccc2)C(=O)O)CC1
Data returned: 98.2

---

# Experiment description: reversal of MRP1-mediated doxorubicin resistance, pilot screen, H69AR cells, doxorubicin co-treatment (AID 601)
# Recorded conditions: H69AR cells, CellTiter-Glo, 72 h; compound alone cytotoxicity; at 10 µM
Readout label: viability (%)
The reply should be a number in %, with the unit left off.

Compound	viability (%)
NC(=O)c1c(NC(=O)CN2CCCC2)sc2c1CCCC2	91.3
Cn1c(=O)[nH]c(=O)c2c1nc(N(CCO)Cc1ccccc1)n2Cc1ccccc1Cl	81.6

The record that follows has no viability shown yet.
Data request: Find the recorded viability belonging to CCOC(=O)C1CCN(c2c(N3CCCC(C(=O)OCC)C3)c(=O)c2=O)CC1 (stereo unspecified) and report it.
Data returned: 96.9

---

Listed here: items and their measured differential viability (reversal).
# Experiment description: reversal of MRP1-mediated doxorubicin resistance, pilot screen, H69AR cells, doxorubicin co-treatment (AID 601)
# Recorded conditions: H69AR cells + 2 uM doxorubicin, CellTiter-Glo, 72 h; at 10 µM; stronger effect = higher value
Value expressed in %; do not type the unit.

Molecule	Uom	differential viability (reversal)
Cc1cccc(NC(=O)CSc2nnc(-c3cc(C)n(-c4ccccc4)c3C)o2)c1C	%	-3.98
CCCc1cc(=O)n2[nH]c(-c3ccc(Br)cc3)cc2n1	%	-15.6
Cc1ccc(NCc2nnc(SCC(=O)N3CCCCC3)n2CC2CCCO2)c(C)c1 (configuration not stated)	%	1.68
Cc1c(C(=O)OCC(C)(C)CN(C)C)oc2ccccc12	%	8.07
CCOc1ccc(-c2nnc(N)s2)cc1	%	25.6

Data request: Given COCCSc1ccccc1C(=O)Nc1cc(C)on1 , state its recorded differential viability (reversal).
Data returned: 4.69

Data request: Next molecule: C=CCOc1ccc(/C=N/n2cncn2)cc1OC
Data returned: 8.46

Data request: Moving on to the next molecule: CN(C)S(=O)(=O)c1ccc(C(=O)NCc2cccs2)cc1
Data returned: 8.48

Data request: Next molecule up: CN(CCC#N)C(=O)COC(=O)c1ccc(Cl)c(S(N)(=O)=O)c1
Data returned: 7.13

---

# Experiment description: reducers of endogenous Her2 protein level, primary screen, SKBR3 breast tumor cells, AlphaScreen, ATP viability (AID 461);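 as to viability: percent of carrier control wells set as 100% viability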
# Recorded conditions: 18-24 h, measured here: SKBR3 viability, ATP luminescence, at 10 µM
Square brackets hold non-standard residues; d marks the D form. Peptide text beside a SMILES is read from it. * marks the point of attachment. ξ: configuration not given here. Cbz = O=C(OCc1ccccc1)*; ξK = NCCCCC(N)C(=O)O
Entries annotated with measured viability
Express your answer in %, writing the number without its unit.

Compound	viability, %
Cn1c(-c2cc(Br)ccc2O)n[nH]c1=S	89.5
CCOC(=O)N1CCN(c2c(NCCN(C)Cc3ccccc3)c(=O)c2=O)CC1	98
Cc1cnc(C(=O)OCC(=O)Nc2ccc(Cl)cc2Cl)cn1	89.5
COc1ccc(C2C(=O)N(C3CCCCC3)CC(=O)N2Cc2ccco2)cc1 (stereo unspecified)	110
Cc1ccc(Br)cc1S(=O)(=O)N1CCN(c2ccccc2)CC1	93.5

Alright, here's another compound for you.
Data request: Recorded viability for COC(=O)C(CCCCNC(=O)OCc1ccccc1)NC(=O)CN (stereo unspecified) (H-Gly-[ξK](Cbz)-OMe) , please?
Data returned: 109
